Hi there, I'd appreciate the recorded Peak area for every entry that follows.
method: UPLC/ESI-tqMS time profile of 2,6-DCQ and its degradation products in simulated seawater (pH 8.2, darkness); OH-DCQ formation
condition_details: 2,6-DCQ degradation, pH 8.2, darkness; 0.75 h

O=C1C=C(Cl)C(=O)C(OC2=C(Cl)C(=O)C(Cl)=CC2=O)=C1 | 1708
O=C1C=C(Cl)C(=O)C=C1O [SIR 157, 3-hydroxyl-6-monochloro-1,4-benzoquinone] | 1521

Items follow; give Peak area for each.
1. O=C1C=C(Cl)C(=O)C(Cl)=C1
2. O=C1C=C(Cl)C(=O)C(Cl)=C1O [OH-DCQ, 3-hydroxyl-2,6-dichloro-1,4-benzoquinone]

[43401.4, 15961]

* * *

Hi there, I'd appreciate the recorded Peak area for every entry that follows.
method: UPLC/ESI-tqMS time profile of 2,6-DCQ and its degradation products in simulated seawater (pH 8.2, darkness); OH-DCQ formation
condition_details: 2,6-DCQ degradation, pH 8.2, darkness; 0.25 h
Procedure: A Waters UPLC system coupled with ESI-tqMS was used to characterize the degradation products of 2,6-DCQ. The UPLC separation was performed using an HSS T3 column (100 × 2.1 mm, 1.8 μm particle size, Waters) with a column temperature of 35 °C. […] The second aliquot was subjected to analysis of total organic halogen to quantify the collected OH-DCQ. […] The chloride ion concentration was determined using an ICS-3000 ion chromatography system (Dionex). […]
Give bare numbers.

Here is how some compounds turned out for Peak area.
O=C1C=C(Cl)C(=O)C(OC2=C(Cl)C(=O)C(Cl)=CC2=O)=C1 | 566
O=C1C=C(Cl)C(=O)C=C1O [SIR 157, 3-hydroxyl-6-monochloro-1,4-benzoquinone] | 1090
O=C1C=C(Cl)C(=O)C(Cl)=C1O [OH-DCQ, 3-hydroxyl-2,6-dichloro-1,4-benzoquinone] | 9916

In the following, a different compound is considered.
Indicate the recorded Peak area value for this compound: "O=C1C=C(Cl)C(=O)C(Cl)=C1"
52714.2

* * *

Hi there, I'd appreciate the recorded Peak area for every entry that follows.
method: UPLC/ESI-tqMS time profile of 2,6-DCQ and its degradation products in simulated seawater (pH 8.2, darkness); OH-DCQ formation
condition_details: 2,6-DCQ degradation, pH 8.2, darkness; 2 h
Give bare numbers.

Here is how some compounds turned out for Peak area.
O=C1C=C(Cl)C(=O)C(Cl)=C1O [OH-DCQ, 3-hydroxyl-2,6-dichloro-1,4-benzoquinone] | 19969
O=C1C=C(Cl)C(=O)C(OC2=C(Cl)C(=O)C(Cl)=CC2=O)=C1 | 3055
O=C1C=C(Cl)C(=O)C(Cl)=C1 | 22195.6

Indicate the recorded Peak area value for this compound: O=C1C=C(Cl)C(=O)C=C1O [SIR 157, 3-hydroxyl-6-monochloro-1,4-benzoquinone]
1830

* * *

Hi there, I'd appreciate the recorded Peak area for every entry that follows.
method: UPLC/ESI-tqMS time profile of 2,6-DCQ and its degradation products in simulated seawater (pH 8.2, darkness); OH-DCQ formation
condition_details: 2,6-DCQ degradation, pH 8.2, darkness; 3.75 h
Protocol: A Waters UPLC system coupled with ESI-tqMS was used to characterize the degradation products of 2,6-DCQ. The UPLC separation was performed using an HSS T3 column (100 × 2.1 mm, 1.8 μm particle size, Waters) with a column temperature of 35 °C. […] The second aliquot was subjected to analysis of total organic halogen to quantify the collected OH-DCQ. […] The chloride ion concentration was determined using an ICS-3000 ion chromatography system (Dionex). […]
Give bare numbers.

Here is how some compounds turned out for Peak area.
O=C1C=C(Cl)C(=O)C=C1O [SIR 157, 3-hydroxyl-6-monochloro-1,4-benzoquinone] | 2409
O=C1C=C(Cl)C(=O)C(Cl)=C1 | 9088.8

Items follow; give Peak area for each.
1. O=C1C=C(Cl)C(=O)C(OC2=C(Cl)C(=O)C(Cl)=CC2=O)=C1
2. O=C1C=C(Cl)C(=O)C(Cl)=C1O [OH-DCQ, 3-hydroxyl-2,6-dichloro-1,4-benzoquinone]

[3765, 25488]

* * *

method: UPLC/ESI-tqMS time profile of 2,6-DCQ and its degradation products in simulated seawater (pH 8.2, darkness); OH-DCQ formation
condition_details: 2,6-DCQ degradation, pH 8.2, darkness; 2.25 h
Hi there, I'd appreciate the recorded Peak area for every entry that follows.
Give bare numbers.

Here is how some molecules turned out for Peak area.
O=C1C=C(Cl)C(=O)C(OC2=C(Cl)C(=O)C(Cl)=CC2=O)=C1 | 3331
O=C1C=C(Cl)C(=O)C(Cl)=C1 | 19679.8
O=C1C=C(Cl)C(=O)C=C1O [SIR 157, 3-hydroxyl-6-monochloro-1,4-benzoquinone] | 2020

Indicate the recorded Peak area value for this molecule: O=C1C=C(Cl)C(=O)C(Cl)=C1O [OH-DCQ, 3-hydroxyl-2,6-dichloro-1,4-benzoquinone]
21520

* * *

method: UPLC/ESI-tqMS time profile of 2,6-DCQ and its degradation products in simulated seawater (pH 8.2, darkness); OH-DCQ formation
condition_details: 2,6-DCQ degradation, pH 8.2, darkness; 0 h
Protocol: A Waters UPLC system coupled with ESI-tqMS was used to characterize the degradation products of 2,6-DCQ. The UPLC separation was performed using an HSS T3 column (100 × 2.1 mm, 1.8 μm particle size, Waters) with a column temperature of 35 °C. […] The second aliquot was subjected to analysis of total organic halogen to quantify the collected OH-DCQ. […] The chloride ion concentration was determined using an ICS-3000 ion chromatography system (Dionex). […]
Hi there, I'd appreciate the recorded Peak area for every entry that follows.
Answers are plain numbers.

Here is how some compounds turned out for Peak area.
O=C1C=C(Cl)C(=O)C=C1O [SIR 157, 3-hydroxyl-6-monochloro-1,4-benzoquinone] | 131
O=C1C=C(Cl)C(=O)C(OC2=C(Cl)C(=O)C(Cl)=CC2=O)=C1 | 25

Items follow; give Peak area for each.
1. O=C1C=C(Cl)C(=O)C(Cl)=C1O [OH-DCQ, 3-hydroxyl-2,6-dichloro-1,4-benzoquinone]
2. O=C1C=C(Cl)C(=O)C(Cl)=C1

2432
56527.8

* * *

Hi there, I'd appreciate the recorded Peak area for every entry that follows.
method: UPLC/ESI-tqMS time profile of 2,6-DCQ and its degradation products in simulated seawater (pH 8.2, darkness); OH-DCQ formation
condition_details: 2,6-DCQ degradation, pH 8.2, darkness; 3 h
Numbers only.

Here is how some molecules turned out for Peak area.
O=C1C=C(Cl)C(=O)C=C1O [SIR 157, 3-hydroxyl-6-monochloro-1,4-benzoquinone] | 2124
O=C1C=C(Cl)C(=O)C(Cl)=C1O [OH-DCQ, 3-hydroxyl-2,6-dichloro-1,4-benzoquinone] | 24273

Items follow; give Peak area for each.
1. O=C1C=C(Cl)C(=O)C(Cl)=C1 [2,6-DCQ, 2,6-dichlorobenzoquinone]
2. O=C1C=C(Cl)C(=O)C(OC2=C(Cl)C(=O)C(Cl)=CC2=O)=C1 [SIR 333]

[13185.2, 3681]

* * *

method: UPLC/ESI-tqMS time profile of 2,6-DCQ and its degradation products in simulated seawater (pH 8.2, darkness); OH-DCQ formation
condition_details: 2,6-DCQ degradation, pH 8.2, darkness; 4.5 h
measured_attribute: Peak area
Numbers only.

Here is how some compounds turned out for Peak area.
O=C1C=C(Cl)C(=O)C(OC2=C(Cl)C(=O)C(Cl)=CC2=O)=C1 | 3886
O=C1C=C(Cl)C(=O)C=C1O [SIR 157, 3-hydroxyl-6-monochloro-1,4-benzoquinone] | 2594
O=C1C=C(Cl)C(=O)C(Cl)=C1O [OH-DCQ, 3-hydroxyl-2,6-dichloro-1,4-benzoquinone] | 26676

In the following, a different compound is considered.
Indicate the recorded Peak area value for this compound: "O=C1C=C(Cl)C(=O)C(Cl)=C1"
5577.6

* * *

method: UPLC/ESI-tqMS time profile of 2,6-DCQ and its degradation products in simulated seawater (pH 8.2, darkness); OH-DCQ formation
condition_details: 2,6-DCQ degradation, pH 8.2, darkness; 4 h
measured_attribute: Peak area
Answers are plain numbers.

O=C1C=C(Cl)C(=O)C(OC2=C(Cl)C(=O)C(Cl)=CC2=O)=C1 [SIR 333] | 3768

Items follow; give Peak area for each.
1. O=C1C=C(Cl)C(=O)C(Cl)=C1 [2,6-DCQ, 2,6-dichlorobenzoquinone]
2. O=C1C=C(Cl)C(=O)C(Cl)=C1O [OH-DCQ, 3-hydroxyl-2,6-dichloro-1,4-benzoquinone]

7959
26847

Indicate the recorded Peak area value for this compound: O=C1C=C(Cl)C(=O)C=C1O [SIR 157, 3-hydroxyl-6-monochloro-1,4-benzoquinone]
2447

* * *

Hi there, I'd appreciate the recorded half-life at 10 mg L−1 for every entry that follows.
method: Degradation in seawater in darkness (pH 6.2, 7.2, 8.2)
condition_details: buffer, pH 8.2
Give bare numbers, in min.

Items follow; give half-life at 10 mg L−1 for each.
1. Oc1cc(Cl)c(O)cc1Cl [2,5-DCHQ, 2,5-dichlorohydroquinone]
2. O=C1C=C(Cl)C(=O)C(Cl)=C1

1: 7.8; 2: 104
